This listing pairs compounds with measured log10(EC50).
experiment: Antiviral activity against Human respiratory syncytial virus A strain Long infected in human Hep2 cells assessed as reduction in virus induced cytopathic effect in presence of 10% FBS after 5 days by CCK-8 assay; type: functional, cell-based; settings: HEp-2, 120 h
Transform log10 | Measure EC50 | Unit nM

{"smiles representation": "COc1ccc2c(c1)CN(c1cc(NCC3(N)COC3)c3cc(C)ccc3n1)CCS2(=O)=O", "log10(EC50)": 0.48}

I'd like to know its log10(EC50). The compound in question is COc1ccc2c(c1)S(=O)(=O)CCN(c1cc(NCC3(N)COC3)c3cc(C)ccc3n1)C2
0.00

Which log10(EC50) value belongs to Cc1ccc2nc(N3CCS(=O)(=O)c4ccccc4C3)cc(NCC3(N)COC3)c2c1F ?
1.36

Suppose we examine the compound Cc1ccc2nc(N3CCS(=O)(=O)c4cc(Cl)ccc4C3)cc(NCC3(N)COC3)c2c1 ; what log10(EC50) value has been reported?
1.43

Suppose we examine the compound Cc1ccc2nc(N3CCS(=O)(=O)c4ccccc4C3)nc(NCC3(N)CCC3)c2c1 ; what log10(EC50) value has been reported?
2.00

Entry Cc1ccc2nc(N3CCS(=O)(=O)c4ccc(F)cc4C3)cc(NCC3(N)COC3)c2c1 has what log10(EC50)?
1.86

Item under review: Cc1ccc2nc(N3CCS(=O)(=O)c4ccccc4C3)nc(NCC3(N)COC3)c2c1 . Reported log10(EC50)?
0.48

Which value of log10(EC50) has been reported for Cc1ccc2nc(N3CCS(=O)(=O)c4ccccc4C3)nc(NCC3(N)CC3)c2c1 in the records?
0.60

Query (compound): COc1cccc2c1S(=O)(=O)CCN(c1cc(NCC3(N)COC3)c3cc(C)ccc3n1)C2 ; field requested: log10(EC50)
2.54

====

assay: Antiviral activity against Human respiratory syncytial virus A 1177 clinical isolates infected in human Hep2 cells assessed as reduction in virus induced cytopathic effect in presence of 10% FBS after 5 days by CCK-8 assay; format: functional, cell-based; conditions: human respiratory syncytial virus, 1177, HEp-2, 120 h
quantity measured: EC50 (nM)
Give the quantity in nM, number only.

Would you kindly share the measured EC50 for Cc1ccc2nc(N3CCS(=O)(=O)c4ccccc4C3)nc(NCC3(N)COC3)c2c1 ?
4

====

assay: AUC (0 to 24 hrs) in CD-1 mouse plasma at 10 mg/kg/day, po administered via gavage and measured up to 24 hrs by LC/MS/MS analysis; assay type: ADME, organism-based; design: dose 10 mg/kg/day, time < 24 hr, route oral
quantity measured: AUC at 24 h (ng·h/mL)
Unit ng·h/mL implied. Number only.

Using the record for Cc1ccc2nc(N3CCS(=O)(=O)c4ccccc4C3)nc(NCC3(N)COC3)c2c1 , report its AUC at 24 h.
8380

====

test: Volume of distribution at steady state in Sprague-Dawley rat at 2 mg/kg, iv or 10 mg/kg, po; format: ADME, organism-based; conditions: in vivo, read-out: Vdss
quantity measured: Vd (L/kg)
Supply the numeric figure in L/kg, leaving out any unit text.

Need Vd, item Cc1ccc2nc(N3CCS(=O)(=O)c4ccccc4C3)nc(NCC3(N)COC3)c2c1
3.9

====

experiment: Clearance in cynomolgus monkey at 2 mg/kg, iv or 10 mg/kg, po; format: ADME, organism-based, Macaca fascicularis; conditions: in vivo
quantity measured: clearance (mL/min/kg)
// note: answer is a bare numeric in mL/min/kg

Entry Cc1ccc2nc(N3CCS(=O)(=O)c4ccccc4C3)nc(NCC3(N)COC3)c2c1 : reported clearance = ?
26

====

experiment: Half-life in Beagle dog at 1 mg/kg, iv; assay type: ADME, organism-based, Canis lupus familiaris; settings: in vivo
quantity measured: half-life (min)
Write it as a number; the unit min goes unstated.

Endpoint output: half-life of Cc1ccc2nc(N3CCS(=O)(=O)c4ccccc4C3)nc(NCC3(N)COC3)c2c1 [ZIRESOVIR] . Value?
168

====

test: AUC (0 to 24 hrs) in Sprague-Dawley rat at 10 mg/kg, po; assay type: ADME, organism-based; design: dose 10 mg/kg, time < 24 hr, route oral; settings: in vivo
quantity measured: AUC(0-t) at 24 h (ng·h/mL)
Write the value in ng·h/mL as a bare number.

// query AUC(0-t) at 24 h value for entry Cc1ccc2nc(N3CCS(=O)(=O)c4ccccc4C3)nc(NCC3(N)COC3)c2c1
906

====

experiment: Oral bioavailability in cynomolgus monkey at 10 mg/kg; type: ADME, organism-based, Macaca fascicularis; settings: in vivo
quantity measured: bioavailability (%)
Note: unit % is implicit; provide only the numeric part.

For the compound shown here, Cc1ccc2nc(N3CCS(=O)(=O)c4ccccc4C3)nc(NCC3(N)COC3)c2c1 [ZIRESOVIR] , give the reported bioavailability.
22

====

experiment: Cmax in CD-1 mouse plasma at 10 mg/kg/day, po administered via gavage and measured up to 24 hrs by LC/MS/MS analysis; format: ADME, organism-based; design: dose 10 mg/kg/day, route oral
quantity measured: Cmax
Your answer should be a number followed by the unit of measure.

Cmax for Cc1ccc2nc(N3CCS(=O)(=O)c4ccccc4C3)nc(NCC3(N)COC3)c2c1 [ZIRESOVIR] ?
5.09 µg/mL

====

assay: AUC (0 to 24 hrs) in CD-1 mouse at 50 mg/kg, po; assay type: ADME, organism-based; parameters: dose 50 mg/kg, time < 24 hr, route oral; conditions: in vivo
quantity measured: AUC(0-t) at 24 h (ng·h/mL)
Quick note: give the figure in ng·h/mL, leave out the unit.

What measured AUC(0-t) at 24 h goes with Cc1ccc2nc(N3CCS(=O)(=O)c4ccccc4C3)nc(NCC3(N)COC3)c2c1 [ZIRESOVIR] ?
1970

====

assay: Volume of distribution at steady state in Wistar-Han rat at 2 mg/kg, iv or 10 mg/kg, po administered as single dose via gavage and measured up to 24 hrs by LC/MS/MS analysis; assay type: ADME, organism-based; conditions: in vivo, read-out: Vdss
quantity measured: Vd (L/kg)
Answer with a number only, understood to be in L/kg.

{"compound": "Cc1ccc2nc(N3CCS(=O)(=O)c4ccccc4C3)cc(NCC3(N)COC3)c2c1", "Vd, L/kg": 4.1}

Turning now to a further record.
Which value of Vd has been reported for Cc1ccc2nc(N3CCS(=O)(=O)c4ccccc4C3)nc(NCC3(N)COC3)c2c1 [ZIRESOVIR] in the records?
3.9

====

experiment: Clearance in Beagle dog at 1 mg/kg, iv or 10 mg/kg, po; assay type: ADME, organism-based, Canis lupus familiaris; settings: in vivo
quantity measured: clearance (mL/min/kg)
Your answer is read as mL/min/kg, so omit the unit and give the number.

Quick check: clearance of Cc1ccc2nc(N3CCS(=O)(=O)c4ccccc4C3)nc(NCC3(N)COC3)c2c1 ?
36

====

test: Ratio of AUC (0 to 24 hrs) in lung to plasma of CD-1 mouse at 10 mg/kg, po administered via gavage by LC-MS/MS analysis; assay type: ADME, organism-based; settings: read-out: Ratio AUC
quantity measured: Kp
Simply state the number, no unit and no words.

Suppose we examine the compound Cc1ccc2nc(N3CCS(=O)(=O)c4ccccc4C3)nc(NCC3(N)COC3)c2c1 ; what Kp value has been reported?
8.6

====

assay: AUC (0 to 24 hrs) in Wistar-Han rat at 10 mg/kg, po administered as single dose via gavage and measured up to 24 hrs by LC/MS/MS analysis; format: ADME, organism-based; design: dose 10 mg/kg, time < 24 hr, route oral; conditions: in vivo
quantity measured: AUC(0-t) at 24 h
The reply must contain the numeric value and, after it, the unit.

{"compound": "Cc1ccc2nc(N3CCS(=O)(=O)c4ccccc4C3)nc(NCC3(N)COC3)c2c1 [ZIRESOVIR]", "AUC(0-t) at 24 h": "906 ng·h/mL"}

Now turn to the next compound.
Give its AUC(0-t) at 24 h value. Item: Cc1ccc2nc(N3CCS(=O)(=O)c4ccccc4C3)cc(NCC3(N)COC3)c2c1
442 ng·h/mL

====

experiment: Therapeutic index, ratio of CC50 of human Hep2 cells to EC50 for antiviral activity against human respiratory syncytial virus long strain infected in human Hep2 cells after 5 days by CCK-8 assay; assay type: toxicity, cell-based; settings: HEp-2 cells, read-out: Ratio CC50/EC50
Rule for this label: fulfilled means selectivity ratio at 120 h is less than 1000; not fulfilled means selectivity ratio at 120 h is at least 1000.

Take a look at these entries with their results.
{"smiles representation": "NC1(CNc2nc(N3CCS(=O)(=O)c4ccccc4C3)nc3ccccc23)COC1", "label": "not fulfilled"}
{"smiles representation": "COc1ccc2c(c1)CN(c1cc(NCC3(N)COC3)c3cc(C)ccc3n1)CCS2(=O)=O", "label": "not fulfilled"}
{"smiles representation": "Cc1cc2c(NCC3(N)COC3)cc(N3CCS(=O)(=O)c4ccccc4C3)nc2c(F)c1F", "label": "fulfilled"}
{"smiles representation": "NC1(CNc2cc(N3CCS(=O)(=O)c4ccccc4C3)cc3ccccc23)COC1", "label": "fulfilled"}

Alright, here's another compound for you.
In the record for Cc1ccc2c(c1)S(=O)(=O)CCN(c1cc(NCC3(N)COC3)c3ccccc3n1)C2 , is selectivity ratio at 120 h less than 1000?
not fulfilled
